These entries and their values trace back to patent US8980908B2.

Target: DOR (UniProt P41143)
Type: binding
Design: rows headed: Ki ± SEM [3H]NTI (δ); other: n=3; Ki ± SEM DOR
Details: n=3; read-out: Ki ± SEM DOR
measured-attribute: pKi
Friendly reminder that pKi comes from taking -log10 of the concentration in mol/L.

Please give the measured pKi for this compound: COC(=O)/C=C/C(=O)N[C@@H]1CC[C@@]2(O)[C@H]3Cc4ccc(O)c5c4[C@@]2(CCN3CC2CC2)[C@H]1O5 [β-FNA, β-funaltrexamine]
7.56

---

// reported pKi per item
Target: DOR (UniProt P41143)
Type: binding
Parameters: Ki δ; four experiments; other: three experiments; other: SNC80 5 μM; Ki δ
Conditions: read-out: Ki δ; Table 8 (NAQ analogues); four experiments
Friendly reminder that pKi comes from taking -log10 of the concentration in mol/L.

Please give the measured pKi for this compound: `COc1c(C(=O)N[C@H]2CC[C@@]3(O)[C@H]4Cc5ccc(O)c6c5[C@@]3(CCN4CC3CC3)[C@H]2O6)nc(Cl)c2ccccc12`
7.47

API: the following record is the query input.
Please give the measured pKi for this compound: `O=C(N[C@H]1CC[C@@]2(O)[C@H]3Cc4ccc(O)c5c4[C@@]2(CCN3CC2CC2)[C@H]1O5)c1cc2cc([N+](=O)[O-])ccc2cn1`
7.02
